assay: Drug uptake in beagle dog liver at 1 mg/kg, po measured after 24 hrs; assay type: ADME, organism-based, Canis lupus familiaris; parameters: dose 1 mg/kg, route oral; conditions: read-out: Drug uptake
property: concentration at 24 h (nM)
One number for each entry, in nM.

Problem: Form field: reported concentration at 24 h of "C=C[C@@H]1C[C@]1(NC(=O)[C@@H]1C[C@@H]2CN1C(=O)[C@H](C(C)(C)C)NC(=O)O[C@@H]1C[C@H]1CCCCCc1nc3ccc(OC)cc3nc1O2)C(=O)[N-]S(=O)(=O)C1CC1.[K+]"
Solution: 1400

* * *

biological target: Genome polyprotein (Hepacivirus C, UniProt K7XJL6, A156T); assay: Inhibition of Hepatitis C virus (isolate BK) genotype 1b NS3/4a protease A156T mutant expressed in Escherichia coli by time-resolved fluorescence analysis
property: pKi
Give bare numbers, as −log10 of the molar value.

Some compounds with recorded pKi:
[[record]]
smilesrepr = "C=C[C@@H]1C[C@]1(NC(=O)[C@@H]1C[C@@H]2CN1C(=O)[C@H](C1CCCCC1)NC(=O)OCC(C)(C)CCCCCc1nc3ccc(OC)cc3cc1O2)C(=O)NS(=O)(=O)C1CC1"
property = "pKi"
assayresult = 7.92

[[record]]
smilesrepr = "C=C[C@@H]1C[C@]1(NC(=O)[C@@H]1C[C@@H]2CN1C(=O)[C@H](C1CCCCC1)NC(=O)OCC(C)(C)CCC/C=C/c1nc3ccccc3cc1O2)C(=O)NS(=O)(=O)C1CC1"
property = "pKi"
assayresult = 7.74

[[record]]
smilesrepr = "C=C[C@@H]1C[C@]1(NC(=O)[C@@H]1C[C@@H]2CN1C(=O)[C@H](C(C)(C)C)NC(=O)O[C@@H]1C[C@H]1CCCCCc1nc3ccc(OC)cc3cc1O2)C(=O)NS(=O)(=O)C1CC1"
property = "pKi"
assayresult = 8.54

[[record]]
smilesrepr = "C=C[C@@H]1C[C@]1(NC(=O)[C@@H]1C[C@@H]2CN1C(=O)[C@H](C1CCCCC1)NC(=O)OCC(C)(C)CCCc1cc3c(nccc3cc1OC)O2)C(=O)NS(=O)(=O)C1CC1"
property = "pKi"
assayresult = 6.27

[[record]]
smilesrepr = "C=C[C@@H]1C[C@]1(NC(=O)[C@@H]1C[C@@H]2CN1C(=O)[C@H](C1CCCCC1)NC(=O)OCC(C)(C)CCCCCc1nc3ccccc3cc1O2)C(=O)NS(=O)(=O)C1CC1"
property = "pKi"
assayresult = 7.57

[[record]]
smilesrepr = "C=C[C@@H]1C[C@]1(NC(=O)[C@@H]1C[C@@H]2CN1C(=O)[C@H](C(C)(C)C)NC(=O)O[C@@H]1CCC[C@H]1CCCCCc1nc3ccc(OC)cc3cc1O2)C(=O)NS(=O)(=O)C1CC1"
property = "pKi"
assayresult = 8.62


We next turn to a different compound, shown below.
Problem: # value lookup — system Genome polyprotein (Hepacivirus C, UniProt K7XJL6, A156T), readout pKi, item "CC[C@@H]1C[C@]1(NC(=O)[C@@H]1C[C@@H]2CN1C(=O)[C@H](C(C)(C)C)NC(=O)OCC(C)(C)CCCCc1cccc3c1CN(C3)C(=O)O2)C(=O)NS(=O)(=O)C1CC1"
Solution: 7.66
